Experiment: Pharmacokinetic study, 4ET-03-009 at 10 mg/kg oral
Assay type: in vivo, CD-1 male mice
Conditions: male, CD-1, mouse, plasma, oral, 10 mg/kg, 0.5 hours, read-out: Plasma Conc. (per mouse n = 3)
EXPERIMENTAL READOUT: concentration at 0.5 h (ng/mL)
State just the number; it will be interpreted in ng/mL.

(Q) Reported concentration at 0.5 h, compound Cc1cc(Nc2cc(NC(=O)C3CC3)ncn2)c(=O)n2c1C(=O)NC21CCOCC1 [Compound 4ET-03-009] : ____
(A) 202

---

Assay: Pharmacokinetic study, 4ET-03-009 at 10 mg/kg oral
Format: in vivo, CD-1 male mice
Settings: male, CD-1, mouse, plasma, oral, 10 mg/kg, 1 hours, mean n = 3, read-out: Plasma Conc. Mean
EXPERIMENTAL READOUT: concentration at 1 h (ng/mL)
Numeric only. Scale: ng/mL

(Q) Consider the molecule shown here: Cc1cc(Nc2cc(NC(=O)C3CC3)ncn2)c(=O)n2c1C(=O)NC21CCOCC1 What is its recorded concentration at 1 h?
(A) 294

Hello, the source for this data is patent US20230286983A1, in case you need it.
